Task for the reader: assign each of the following compounds its reported growth inhibition.
- System: HGGX6 (H3.3 G34R paediatric high-grade glioma line)
- assayProcedure: growth inhibition (% activity, log2 RLU normalised to DMSO / staurosporine); higher = more growth inhibition
- statedConditions: 33 µM
State just the number; it will be interpreted in %.

So for N[C@@H]1CCCCN(c2c(F)cc3c(=O)c(C(=O)O)cn(C4CC4)c3c2Cl)C1 , the logged growth inhibition turned out to be -3.25

So for CCCCCCCN(CC)CCCC(O)c1ccc(NS(C)(=O)=O)cc1 (stereo unspecified) , the logged growth inhibition turned out to be 0.985

So for C[C@@H](CN1CC(=O)NC(=O)C1)N1CC(=O)NC(=O)C1 , the logged growth inhibition turned out to be -0.816

So for CN(C)CCCOc1nn(Cc2ccccc2)c2ccccc12 , the logged growth inhibition turned out to be 14.8

So for CCN[C@H]1C[C@H](C)S(=O)(=O)c2sc(S(N)(=O)=O)cc21 , the logged growth inhibition turned out to be 0.627

So for Cc1ncc(CO)c(CO)c1O , the logged growth inhibition turned out to be 2.21

* * *

Task for the reader: assign each of the following compounds its reported growth inhibition.
- Tested on: SUDIPGXIII (diffuse intrinsic pontine glioma line)
- assayProcedure: growth inhibition (% activity, log2 RLU normalised to DMSO / staurosporine); higher = more growth inhibition
- statedConditions: 33 µM
State just the number; it will be interpreted in %.

So for CCOc1nc2cccc(C(=O)O)c2n1Cc1ccc(-c2ccccc2-c2noc(=O)[nH]2)cc1 , the logged growth inhibition turned out to be -1.07

So for NC(CO)(CO)CO , the logged growth inhibition turned out to be 0.677

So for C=C[C@]1(C)C[C@@H](OC(=O)CS[C@@H]2C[C@H]3CC[C@@H](C2)N3C)[C@]2(C)[C@H](C)CC[C@]3(CCC(=O)[C@H]32)[C@@H](C)[C@@H]1O , the logged growth inhibition turned out to be 5.37

So for N[C@@H]1CCCCN(c2c(F)cc3c(=O)c(C(=O)O)cn(C4CC4)c3c2Cl)C1 , the logged growth inhibition turned out to be -0.978

So for CCC(=O)OCC(=O)[C@@]1(OC(=O)CC)[C@@H](C)C[C@H]2[C@@H]3CCC4=CC(=O)C=C[C@]4(C)[C@@]3(Cl)[C@@H](O)C[C@@]21C , the logged growth inhibition turned out to be 0.862

* * *

- Tested on: SUDIPGIV (diffuse intrinsic pontine glioma line)
- assayProcedure: growth inhibition (% activity, log2 RLU normalised to DMSO / staurosporine); higher = more growth inhibition
- statedConditions: 33 µM
observedProperty: growth inhibition (%)
State just the number; it will be interpreted in %.

So for O=S(=O)(O)CCS , the logged growth inhibition turned out to be -0.0759

So for O=C(O)c1cc(=O)c2c(OCC(O)COc3cccc4oc(C(=O)O)cc(=O)c34)cccc2o1 , the logged growth inhibition turned out to be -0.417

So for CC(C(=O)O)c1ccc2c(c1)[nH]c1ccc(Cl)cc12 (configuration not stated) , the logged growth inhibition turned out to be -2.81

So for CCC(C)(C)c1ccc(CC(C)CN2C[C@@H](C)O[C@@H](C)C2)cc1 (some centres not stated) , the logged growth inhibition turned out to be 11.7

So for O=C1C(=O)c2ccccc2C(O)=C1C1CCC(c2ccc(Cl)cc2)CC1 (configuration not stated) , the logged growth inhibition turned out to be 3.44

So for CC[N+](CC)(CC)CCOc1cccc(OCC[N+](CC)(CC)CC)c1OCC[N+](CC)(CC)CC , the logged growth inhibition turned out to be -0.653

So for Nc1ccc(C(=O)NCC(=O)O)cc1 , the logged growth inhibition turned out to be 1.42

So for Cc1c(Cl)cccc1Nc1ccccc1C(=O)O , the logged growth inhibition turned out to be -2.4

So for NCCC(O)(P(=O)(O)O)P(=O)(O)O , the logged growth inhibition turned out to be 1.34

So for CC(C)(OCc1nn(Cc2ccccc2)c2ccccc12)C(=O)O , the logged growth inhibition turned out to be -3.25

So for COC(=O)Nc1nc2cc([S+]([O-])c3ccccc3)ccc2[nH]1 (configuration not stated) , the logged growth inhibition turned out to be 6.67

So for CCNC(=O)CCC/C=C\C[C@@H]1[C@@H](/C=C/[C@@H](O)CCc2ccccc2)[C@H](O)C[C@@H]1O , the logged growth inhibition turned out to be 0.456

So for CCCC(=O)O[C@]1(C(=O)COC(C)=O)CC[C@H]2[C@@H]3C[C@H](F)C4=CC(=O)C=C[C@]4(C)[C@@]3(F)[C@@H](O)C[C@@]21C , the logged growth inhibition turned out to be -4.91

So for O=c1oc2cc(O)ccc2s1 , the logged growth inhibition turned out to be 1.11

So for O=C(CCCN1CCC(O)(c2ccc(Cl)cc2)CC1)c1ccc(F)cc1 , the logged growth inhibition turned out to be 2.23

So for CC(C(=O)O)c1ccc(C(=O)c2cccs2)cc1 (configuration not stated) , the logged growth inhibition turned out to be -4.32

So for NC(=O)c1ncn([C@@H]2O[C@H](CO)[C@@H](O)[C@H]2O)c1N , the logged growth inhibition turned out to be 0.00762

So for CC(=O)OCC(=O)[C@@]1(O)CC[C@H]2[C@@H]3CCC4=CC(=O)C=C[C@]4(C)[C@@]3(Cl)[C@@H](Cl)C[C@@]21C , the logged growth inhibition turned out to be -2.64

So for CC(=O)Oc1cc(C(F)(F)F)ccc1C(=O)O , the logged growth inhibition turned out to be -2.59

So for CN1CC(=O)NC1=N , the logged growth inhibition turned out to be 2.65

So for Cc1ccccc1N1C(=O)c2cc(S(N)(=O)=O)c(Cl)cc2NC1C (configuration not stated) , the logged growth inhibition turned out to be -1.65

So for COc1ccc2c(c1)c(CC(=O)OCC(=O)O)c(C)n2C(=O)c1ccc(Cl)cc1 , the logged growth inhibition turned out to be -0.727

* * *

Task for the reader: assign each of the following compounds its reported growth inhibition.
- Tested on: HGGX39 (paediatric high-grade glioma line)
- assayProcedure: growth inhibition (% activity, log2 RLU normalised to DMSO / staurosporine); higher = more growth inhibition
- statedConditions: 33 µM
State just the number; it will be interpreted in %.

So for C[C@@H](O[C@H]1OCCN(Cc2nn(P(=O)(O)O)c(=O)[nH]2)[C@H]1c1ccc(F)cc1)c1cc(C(F)(F)F)cc(C(F)(F)F)c1 , the logged growth inhibition turned out to be 11.6

So for NS(=O)(=O)c1cc2c(cc1Cl)NCNS2(=O)=O , the logged growth inhibition turned out to be 0.937

So for Oc1cc(O)c(Cl)cn1 , the logged growth inhibition turned out to be -2.27

So for CC[C@H](C)C(=O)O[C@H]1C[C@H](O)C=C2C=C[C@H](C)[C@H](CC[C@@H](O)C[C@@H](O)CC(=O)O)[C@H]21 , the logged growth inhibition turned out to be 8.71

So for CCC(=O)OCC(=O)[C@@]1(OC(=O)CC)[C@@H](C)C[C@H]2[C@@H]3CCC4=CC(=O)C=C[C@]4(C)[C@@]3(F)[C@@H](O)C[C@@]21C , the logged growth inhibition turned out to be 3.08

So for C[C@@H]1C[C@H]2[C@@H]3CCC4=CC(=O)C=C[C@]4(C)[C@@]3(Cl)[C@@H](O)C[C@]2(C)[C@@]1(OC(=O)c1ccco1)C(=O)CCl , the logged growth inhibition turned out to be 6.75

So for CCOc1nc2cccc(C(=O)OCc3oc(=O)oc3C)c2n1Cc1ccc(-c2ccccc2-c2noc(=O)[nH]2)cc1 , the logged growth inhibition turned out to be 0.998

So for CC(COc1ccccc1)N(CCCl)Cc1ccccc1 (stereo not drawn) , the logged growth inhibition turned out to be -4.31

* * *

- Test system: DIPGX29 (H3.3 K27M diffuse intrinsic pontine glioma line)
- assayProcedure: growth inhibition (% activity, log2 RLU normalised to DMSO / staurosporine); higher = more growth inhibition
- statedConditions: 33 µM
Task for the reader: assign each of the following compounds its reported growth inhibition.
State just the number; it will be interpreted in %.

Let me check: C=C1[C@H](CO)[C@@H](O)C[C@@H]1n1cnc2c(=O)[nH]c(N)nc21 , system DIPGX29, measured growth inhibition is -0.461

Let me check: CC[C@H]1OC(=O)[C@H](C)[C@@H](O[C@H]2C[C@@](C)(OC)[C@@H](O)[C@H](C)O2)[C@H](C)[C@@H](O[C@@H]2O[C@H](C)C[C@H](N(C)C)[C@H]2O)[C@](C)(O)C[C@@H](C)C(=O)[C@H](C)[C@@H](O)[C@]1(C)O , system DIPGX29, measured growth inhibition is 0.288

Let me check: CCCCNC(=O)NS(=O)(=O)c1ccc(C)cc1 , system DIPGX29, measured growth inhibition is -0.968

Let me check: C[C@@H](c1ncncc1F)[C@](O)(Cn1cncn1)c1ccc(F)cc1F , system DIPGX29, measured growth inhibition is 0.619
